- Test system: OVCAR-8
- assayNotes: Cytotoxicity against human OVCAR8 cells assessed as growth inhibition after 48 hrs by sulforhodamine B assay
- Assay type: functional
- conditionsUsed: OVCAR-8, 48 h
readoutName: TGI (µM)
Answer with a number only, understood to be in µM.

Task: What value of measured TGI is listed for `COc1cc(-c2cc(/C=C/C(=O)c3ccc(F)c(F)c3)[nH]n2)cc(OC)c1OC` ?
Output: 17.3

Task: What do we get for `COc1cc(C(=O)/C=C/c2cc(-c3cc(OC)c(OC)c(OC)c3)n[nH]2)cc(OC)c1OC` ?
Output: 3.28

Task: Same thing, different compound: `COc1cc(-c2cc(/C=C/C(=O)c3ccc4c(c3)OCO4)[nH]n2)cc(OC)c1OC`
Output: 11.1

Task: Would you mind doing `COc1ccc(-c2cc(/C=C/C(=O)c3ccc(N)cc3)[nH]n2)cc1` as well?
Output: 15.4

---

- Tested on: U-251
- assayNotes: Cytotoxicity against human U251 cells assessed as cell growth at 10 uM after 48 hrs by sulforhodamine B assay relative to control
- Format: functional
- conditionsUsed: U-251, 48 h, read-out: Activity
growth at 10 µM listing for selected molecules.

Task: So what's the measured growth at 10 µM for this one? `COc1cc(-c2cc(/C=C/C(=O)c3ccc(F)c(F)c3)[nH]n2)cc(OC)c1OC`
Output: 7%

---

- Tested on: CCRF-CEM
- assayNotes: Cytotoxicity against human CCRF-CEM cells assessed as cell growth at 10 uM after 48 hrs by sulforhodamine B assay relative to control
- Assay type: functional
- conditionsUsed: read-out: Activity
Some molecules, each annotated with its measured growth at 10 µM.
The reply should contain only the number, in %.

Field: example entries. Status: answers known.
INSERT INTO measurements (compound, quantitativeresult) VALUES
  ('COc1ccc(C(=O)/C=C/c2cc(-c3ccc4c(c3)OCO4)n[nH]2)cc1OC', -2),
  ('COc1cc(-c2cc(/C=C/C(=O)c3ccc4c(c3)OCO4)[nH]n2)cc(OC)c1OC', -19);

Task: Could you tell me which growth at 10 µM is on file for `COc1cc(-c2cc(/C=C/C(=O)c3ccc(N)cc3)[nH]n2)cc(OC)c1OC` ?
Output: -22

Task: Repeat with `COc1ccc(C(=O)/C=C/c2cc(-c3cc(OC)c(OC)c(OC)c3)n[nH]2)cc1`
Output: -19

---

- Test system: MDA-MB-468
- assayNotes: Cytotoxicity against human MDA-MB-468 cells assessed as cell growth at 0.01 uM after 48 hrs by sulforhodamine B assay relative to control
- Type: functional
- conditionsUsed: MDA-MB-468, 48 h, read-out: Activity
readoutName: growth at 0.01 µM
Respond with a number, then the unit of measure.

In the examples that follow, each entry is paired with its recorded growth at 0.01 µM.
INSERT INTO measurements (compound, readoutname, result) VALUES
  ('COc1ccc(C(=O)/C=C/c2cc(-c3cc(OC)c(OC)c(OC)c3)n[nH]2)cc1', 'growth at 0.01 µM', '89%'),
  ('COc1ccc(C(=O)/C=C/c2cc(-c3cc(OC)c(OC)c(OC)c3)n[nH]2)cc1OC', 'growth at 0.01 µM', '89%'),
  ('COc1ccc(C(=O)/C=C/c2cc(-c3ccc(OC)c(OC)c3)n[nH]2)cc1OC', 'growth at 0.01 µM', '87%'),
  ('COc1ccc(-c2cc(/C=C/C(=O)c3ccc(OC)c(OC)c3)[nH]n2)cc1', 'growth at 0.01 µM', '87%');

For the next question, use this compound.
Task: I have this compound here, `COc1cc2c(cc1OC)C(=O)/C(=C/c1cc(-c3ccc4c(c3)OCO4)n[nH]1)C2` , and I need its recorded growth at 0.01 µM.
Output: 93%

---

- Test system: HCT-15
- assayNotes: Cytotoxicity against human HCT15 cells assessed as cell growth at 1 uM after 48 hrs by sulforhodamine B assay relative to control
- Format: functional
- conditionsUsed: HCT-15, 48 h, read-out: Activity
readoutName: growth at 1 µM (%)
Give the value in % but do not write % after it.

Worked examples, 2 molecules total:
INSERT INTO results (compound, testtarget, quantitativeresult) VALUES
  ('COc1ccc(C(=O)/C=C/c2cc(-c3cc(OC)c(OC)c(OC)c3)n[nH]2)cc1', 'HCT-15', 72),
  ('COc1cc2c(cc1OC)C(=O)/C(=C/c1cc(-c3ccc4c(c3)OCO4)n[nH]1)C2', 'HCT-15', 56);

Task: Quick one: growth at 1 µM for `COc1cc(C(=O)/C=C/c2cc(-c3ccc4c(c3)OCO4)n[nH]2)cc(OC)c1OC` ?
Output: 77

Task: // same read-out, input: `COc1cc(-c2cc(/C=C/C(=O)c3ccc(Cl)c(Cl)c3)[nH]n2)cc(OC)c1OC`
Output: 86

Task: # iterate: `COc1cc(-c2cc(/C=C/C(=O)c3ccc(F)c(F)c3)[nH]n2)cc(OC)c1OC`
Output: 88

---

- Test system: NCI-H522
- assayNotes: Cytotoxicity against human NCI-H522 cells assessed as cell growth at 0.01 uM after 48 hrs by sulforhodamine B assay relative to control
- Assay type: functional
- conditionsUsed: NCI-H522, 48 h, read-out: Activity
The entries below are paired with their reported growth at 0.01 µM.
State the answer as a number, implicitly in %.

// worked examples, growth at 0.01 µM included
INSERT INTO assay_data (compound, quantitativeresult) VALUES
  ('COc1cc2c(cc1OC)C(=O)/C(=C/c1cc(-c3ccc4c(c3)OCO4)n[nH]1)C2', 91),
  ('COc1cc(C(=O)/C=C/c2cc(-c3ccc4c(c3)OCO4)n[nH]2)cc(OC)c1OC', 97),
  ('COc1ccc(C(=O)/C=C/c2cc(-c3ccc(OC)c(OC)c3)n[nH]2)cc1OC', 91),
  ('COc1cc(C(=O)/C=C/c2cc(-c3cc(OC)c(OC)c(OC)c3)n[nH]2)cc(OC)c1OC', 101),
  ('COc1ccc(-c2cc(/C=C/C(=O)c3cc(OC)c(OC)c(OC)c3)[nH]n2)cc1OC', 89);

Switching to the query record.
Task: Name the reported growth at 0.01 µM value associated with the molecule `COc1cc(-c2cc(/C=C/C(=O)c3ccc(N)cc3)[nH]n2)cc(OC)c1OC`
Output: 92

---

- System: HOP-62
- assayNotes: Cytotoxicity against human HOP62 cells assessed as cell growth at 100 uM after 48 hrs by sulforhodamine B assay relative to control
- Assay type: functional
- conditionsUsed: HOP-62, 48 h, read-out: Activity
Hi, to clarify the labels: Met covers growth at 100 µM from -80% upward, Not met covers anything below -80%.

Would you please look over these solved cases?
INSERT INTO assay_data (compound, classassignment) VALUES
  ('COc1cc(-c2cc(/C=C/C(=O)c3ccc4c(c3)OCO4)[nH]n2)cc(OC)c1OC', 'Met'),
  ('COc1ccc(C(=O)/C=C/c2cc(-c3cc(OC)c(OC)c(OC)c3)n[nH]2)cc1OC', 'Not met'),
  ('COc1cc2c(cc1OC)C(=O)/C(=C/c1cc(-c3ccc4c(c3)OCO4)n[nH]1)C2', 'Not met');

Task: Form field: growth at 100 µM at least -80%? Entry: `COc1ccc(-c2cc(/C=C/C(=O)c3cc(OC)c(OC)c(OC)c3)[nH]n2)cc1OC`
Output: Not met

---

- System: HT-29
- assayNotes: Cytotoxicity against human HT-29 cells assessed as cell growth at 0.1 uM after 48 hrs by sulforhodamine B assay relative to control
- Format: functional
- conditionsUsed: HT-29, 48 h, read-out: Activity
readoutName: growth at 0.1 µM (%)
Report the value in % with no unit label.

INSERT INTO assay_data (compound, outputunit, quantitativeresult) VALUES
  ('COc1ccc(C(=O)/C=C/c2cc(-c3cc(OC)c(OC)c(OC)c3)n[nH]2)cc1OC', '%', 105),
  ('COc1cc(-c2cc(/C=C/C(=O)c3ccc(Cl)c(Cl)c3)[nH]n2)cc(OC)c1OC', '%', 98),
  ('COc1ccc(C(=O)/C=C/c2cc(-c3cc(OC)c(OC)c(OC)c3)n[nH]2)cc1', '%', 102),
  ('COc1cc(-c2cc(/C=C/C(=O)c3ccc(N)cc3)[nH]n2)cc(OC)c1OC', '%', 102);

Task: Fill in the blank: the reported growth at 0.1 µM of `COc1ccc(-c2cc(/C=C/C(=O)c3cc(OC)c(OC)c(OC)c3)[nH]n2)cc1OC` is ____.
Output: 99

---

- System: MCF7
- assayNotes: Cytotoxicity against human MCF7 cells assessed as growth inhibition after 48 hrs by sulforhodamine B assay
- Format: functional
- conditionsUsed: MCF7, 48 h
readoutName: TGI
Put down the number, then write its unit next to it.

// worked examples, TGI included
INSERT INTO results (compound, result) VALUES
  ('COc1ccc(-c2cc(/C=C/C(=O)c3ccc(N)cc3)[nH]n2)cc1OC', '8.48 µM'),
  ('COc1cc(-c2cc(/C=C/C(=O)c3ccc(N)cc3)[nH]n2)cc(OC)c1OC', '5.42 µM'),
  ('COc1ccc(-c2cc(/C=C/C(=O)c3cc(OC)c(OC)c(OC)c3)[nH]n2)cc1OC', '2.5 µM');

We next turn to a different compound, shown below.
Task: TGI for `COc1ccc(C(=O)/C=C/c2cc(-c3cc(OC)c(OC)c(OC)c3)n[nH]2)cc1OC` ?
Output: 1.95 µM
